# Assay name: Volume of distribution in rat
# Type: ADME, organism-based
# Condition description: in vivo
Observed property: Vd (L/kg)

Compound: C[C@@H](O[C@H]1CN2C(=O)C(O)C[C@H]2[C@@H]1c1ccc(F)cc1)c1cc(C(F)(F)F)cc(C(F)(F)F)c1 (stereo in doubt; 2b)
Vd, L/kg: 4.2
--
Compound: C[C@@H](O[C@H]1CN2C(=O)CC(N)[C@H]2[C@@H]1c1ccc(F)cc1)c1cc(C(F)(F)F)cc(C(F)(F)F)c1 (stereo in doubt; 15a)
Vd, L/kg: 5.9

----------
# Assay name: Displacement of diltiazem […] from calcium channel
Observed property: IC50 (nM)

Compound: C[C@@H](O[C@H]1CN2C(=O)C(C)(O)C[C@H]2[C@@H]1c1ccc(F)cc1)c1cc(C(F)(F)F)cc(C(F)(F)F)c1 (single isomer, unassigned)
IC50 [nM]: 1870

[A] C[C@@H](O[C@H]1CN2C(=O)CC(C)(O)[C@H]2[C@@H]1c1ccc(F)cc1)c1cc(C(F)(F)F)cc(C(F)(F)F)c1 (stereo in doubt; 20a)
[B] C[C@@H](O[C@H]1CN2C(=O)C(O)C[C@H]2[C@@H]1c1ccc(F)cc1)c1cc(C(F)(F)F)cc(C(F)(F)F)c1 (single isomer, unassigned)
Please indicate which entry, A or B , has the lower recorded IC50 value. Your choice should be expressed through its label.
A
(A: 2210 nM, B: 8060 nM)
